- Test system: SK-MEL-5
- testProtocol: NCI tumour cell line growth inhibition, 48 h
Calls of active or inactive are those of the source. Cut-off read from the data, not from the text of the source: active = GI50 up to about 1.1 µM and inactive = higher. Peptide text beside a SMILES is read from it. * marks the point of attachment. Cbz = O=C(OCc1ccccc1)*; NHNH2 = NN*
Outcomes: 1.0 for active, 0.0 for inactive

{"molecule": "Cc1cc2ccc(OC(=O)c3ccc(NC(=N)N)cc3)cc2oc1=O", "assignedCategory": 0.0}
{"molecule": "Cc1ccc(/N=N/c2c(O)ccc3ccccc23)cc1", "assignedCategory": 0.0}
{"molecule": "COC(=O)CC(NC(=O)OCc1ccccc1)C(=O)NC(CC(=O)OC)C(=O)NC(CC(=O)OC)C(=O)NC(CC(=O)OC)C(=O)NC(CC(=O)OC)C(=O)NC(CC(=O)OC)C(=O)NN (centres undefined) (Cbz-D(OMe)D(OMe)D(OMe)D(OMe)D(OMe)D(OMe)-NHNH2; configuration not given here)", "assignedCategory": 0.0}
{"molecule": "COc1ccc(CN2C(=O)C(=O)N(C)C2=O)c2ccccc12", "assignedCategory": 0.0}
{"molecule": "COC(=O)C1C(O)C(C)C(O)C(C)/C=C\\C=C(C)C(=O)Nc2c(C)c(OC(C)=O)c3c(c2O)C(=O)C(C)=C2OCOC(=C23)C(C)=CC(C)(O)C(O)C(C)C1O (centres undefined)", "assignedCategory": 0.0}
{"molecule": "COC(=O)C(I(OS(=O)(=O)c1ccc(C)cc1)c1ccccc1)=P(c1ccccc1)(c1ccccc1)c1ccccc1", "assignedCategory": 0.0}
{"molecule": "CC(C)(C)S(=O)OC12CC3CC(CC(C3)C1)C2 (centres undefined)", "assignedCategory": 0.0}
{"molecule": "O=C(c1ccccc1)c1ccc2[nH]c(-c3c(Cl)c(Cl)c(Cl)c(Cl)c3C(=O)N/N=C\\C=C\\c3ccccc3)nc2c1", "assignedCategory": 0.0}
{"molecule": "CCS(=O)(=O)CCn1c(=O)c2c(ncn2C)n(C)c1=O", "assignedCategory": 0.0}
{"molecule": "COC1C(O)CC(OC2CC(OC3CC(O[C@@H]4C(=O)c5c(cc6cc(OC7CC(OC8CC(O)C(O)C(C)O8)C(O)C(C)O7)c(C)c(O)c6c5O)C[C@H]4[C@H](OC)C(=O)[C@@H](O)[C@@H](C)O)OC(C)C3O)OC(C)C2O)OC1C (some centres undefined)", "assignedCategory": 1.0}
{"molecule": "Cc1ccc(C(=O)/C=C2\\Nc3ccccc3S\\C2=N\\CS(=O)(=O)c2ccc(C)cc2)cc1", "assignedCategory": 0.0}
{"molecule": "CCOC(=O)c1cc(OC(=O)CC)c2c(OC)ccc(OC)c2c1", "assignedCategory": 0.0}
{"molecule": "CN(C)c1ccc(/C=C2\\C=Cc3ccccc32)cc1", "assignedCategory": 0.0}
{"molecule": "CCOP(=O)(OCC)C(N)c1ccc(Cl)cc1 (centres undefined)", "assignedCategory": 0.0}
{"molecule": "CC(C)C(C/C=C1/CC(CO)(COC(=O)c2ccccc2)OC1=O)C(C)C (centres undefined)", "assignedCategory": 0.0}
{"molecule": "[N-]=[N+]=NC12CC3C4CC5CC3C(C1)C(C5)C4C2", "assignedCategory": 0.0}
{"molecule": "CNS(=O)(=O)NNS(=O)(=O)c1cccc([N+](=O)[O-])c1", "assignedCategory": 0.0}
{"molecule": "CCOC(=O)c1cn(CC)c2ccc3ccsc3c2c1=O", "assignedCategory": 0.0}
{"molecule": "S=C1NC(c2ccccc2)=NC(Cc2ccccc2)(c2ccccc2)N1c1ccccc1 (centres undefined)", "assignedCategory": 0.0}
{"molecule": "CN(C)CCSc1nccc(-c2cc3ccccc3s2)n1", "assignedCategory": 0.0}
{"molecule": "Cc1ccc(S(=O)(=O)Nc2nnc(S(N)(=O)=O)s2)cc1", "assignedCategory": 0.0}
{"molecule": "O=C(/C=C/c1ccc(O)cc1)c1cc(Cl)ccc1O", "assignedCategory": 0.0}
{"molecule": "N#Cc1[nH]c(=O)n(-c2ccccc2)c1N", "assignedCategory": 0.0}
{"molecule": "CN(C(=O)C1(C(=O)C=[N+]=[N-])CC1)c1ccccc1", "assignedCategory": 0.0}
{"molecule": "CC/C(=N/O)C(C)C(=O)CCC(=O)Nc1ccc(Cl)cc1 (centres undefined)", "assignedCategory": 0.0}
{"molecule": "COc1ccc(-c2cc3[nH]nc(N)c3c(=O)o2)cc1", "assignedCategory": 0.0}
{"molecule": "O=C1c2cc(CCl)sc2C(=O)c2ccsc21", "assignedCategory": 1.0}
{"molecule": "Cc1cc(S(=O)(=O)Nc2nc(Nc3ccc(Cl)cc3)n[nH]2)c(S)cc1Cl", "assignedCategory": 0.0}
{"molecule": "O=C(C#Cc1ccccc1)NC/C=C/c1ccccc1", "assignedCategory": 0.0}
{"molecule": "CCN(CCCl)CCCCCNc1c2ccccc2nc2ccc(OC)cc12", "assignedCategory": 1.0}
{"molecule": "C/C(=N\\Oc1cc(Cl)ncn1)c1ccccn1", "assignedCategory": 0.0}
{"molecule": "O=C1C=CC(=O)c2c(NCC3CC3)ccc(NCC3CC3)c21", "assignedCategory": 0.0}
{"molecule": "COc1cc(C2c3cc4c(cc3[C@@H](Nc3cccc(O)c3)C3COC(=O)[C@H]23)OCO4)cc(OC)c1O (some centres undefined)", "assignedCategory": 0.0}
{"molecule": "COP(=O)(/C=C/c1cc(C(=O)OCc2ccccc2)n(S(=O)(=O)c2ccccc2)c1)OC", "assignedCategory": 0.0}
{"molecule": "CC1Cc2c(cc(N)nc2Br)NC1=O (centres undefined)", "assignedCategory": 0.0}
{"molecule": "CC(=O)NC1C(OCc2ccccc2)OC(CO)C(O)C1OC(C)C(=O)NC(C(=O)NC(CCC(=O)NCCCCNc1c2ccccc2nc2cccc([N+](=O)[O-])c12)C(N)=O)C(C)C (centres undefined)", "assignedCategory": 0.0}
{"molecule": "Cc1cn2cc(-c3ccncc3)nc2s1", "assignedCategory": 0.0}
{"molecule": "Cc1cc(N(CCC#N)CCC#N)ccc1/C=C1N=C(/C=C\\c2ccccc2)OC\\1=O", "assignedCategory": 0.0}
{"molecule": "O=C1C=C(C2OC(CO)C(O)C2O)C(=O)N1 (centres undefined)", "assignedCategory": 0.0}

Source of measurements: ChEMBL document CHEMBL1201862
